Every entry's value here was drawn from ChEMBL document CHEMBL4610106.

assay: AUC (infinity) in rat at 30 mg/kg, po; type: ADME, organism-based; design: dose 30 mg/kg, time infinity, route oral; settings: in vivo
Property Name: AUC(0-inf) (ng·h/mL)
Answers are plain numbers, in ng·h/mL.

AUC(0-inf) measured on C=C(F)C(=O)N1CCN(c2nc(OC[C@@H]3CCCN3C)nc3c2CCN(c2cccc4cccc(Cl)c24)C3)C[C@@H]1CC#N [ADAGRASIB] = 2670

---

experiment: Half life in dog whole blood at 5 uM by LC-MS/MS analysis; assay type: ADME, tissue-based, Canis lupus familiaris
Property Name: half-life at 5 µM (h)
Give bare numbers, in h.

1) CN1CCC[C@H]1COc1nc2c(c(N3CCN(C(=O)/C=C/CF)[C@@H](CC#N)C3)n1)CCN(c1cccc3cccc(Cl)c13)C2 = 9
2) COC/C=C/C(=O)N1CCN(c2nc(OC[C@@H]3CCCN3C)nc3c2CCN(c2cccc4cccc(Cl)c24)C3)C[C@@H]1CC#N = 22

half-life at 5 µM measured on C=CC(=O)N1CCN(c2nc(OC[C@@H]3CCCN3C)nc3c2CCN(c2cccc4cccc(Cl)c24)C3)C[C@@H]1CC#N = 2

---

assay: AUC (infinity) in beagle dog at 30 mg/kg, po; type: ADME, organism-based, Canis lupus familiaris; design: dose 30 mg/kg, route oral, time infinity; conditions: in vivo
Property Name: AUC(0-inf) (ng·h/mL)
One number for each entry, in ng·h/mL.

AUC(0-inf) measured on C=C(F)C(=O)N1CCN(c2nc(OC[C@@H]3CCCN3C)nc3c2CCN(c2cccc4cccc(Cl)c24)C3)C[C@@H]1CC#N = 4470

---

assay: Oral bioavailability in beagle dog at 10 mg/kg; type: ADME, organism-based, Canis lupus familiaris; conditions: in vivo
Would you mind telling me the reported bioavailability of each entry?
One number for each entry, in %.

1) C=CC(=O)N1CCN(c2nc(OC[C@@H]3CCCN3C)nc3c2CCN(c2cccc4cccc(C)c24)C3)C[C@@H]1CC#N = 3.67

Let us examine a further case.
bioavailability measured on C=CC(=O)N1CCN(c2nc(OC[C@@H]3CCCN3C)nc3c2CCN(c2cccc4cccc(Cl)c24)C3)C[C@@H]1CC#N = 4.12

---

assay: Clearance in beagle dog at 3 mg/kg, iv; format: ADME, organism-based, Canis lupus familiaris; settings: in vivo
Would you mind telling me the reported clearance of each entry?
Answers are plain numbers, in mL/min/kg.

Solved entries:
1) C=C(F)C(=O)N1CCN(c2nc(OC[C@@H]3CCCN3C)nc3c2CCN(c2cccc4cccc(Cl)c24)C3)C[C@@H]1CC#N = 29.6
2) C=CC(=O)N1CCN(c2nc(OC[C@@H]3CCCN3C)nc3c2CCN(c2cccc4cccc(Cl)c24)C3)C[C@@H]1CC#N = 225

Let us examine a further case.
clearance measured on C=CC(=O)N1CCN(c2nc(OC[C@@H]3CCCN3C)nc3c2CCN(c2cccc4cccc(C)c24)C3)C[C@@H]1CC#N = 151

---

Would you mind telling me the reported Papp of each entry?
assay: Apparent permeability in pig LLC-PK1 cells; assay type: ADME, cell-based, Sus scrofa; conditions: read-out: permeability
Numbers only, in ×10⁻⁶ cm/s.

For every item below, please supply its Papp.
1. C=C(F)C(=O)N1CCN(c2nc(OC[C@@H]3CCCN3C)nc3c2CCN(c2cccc4cccc(Cl)c24)C3)C[C@@H]1CC#N
2. C=CC(=O)N1CCN(c2nc(OC[C@@H]3CCCN3C)nc3c2CCN(c2cccc4ccccc24)C3)C[C@@H]1CC#N

Reply:
1: 4.7; 2: 2.2
